- assay summary: Annexin V/PI flow cytometry viability of irradiated MOLT-4 cells
- Type: cell-based, human
- condition info: human, MOLT-4 cells, not irradiated; 100 μM, no irradiation, 24 h; representative histogram Fig. 5A; read-out: Viable (annexin V/PI negative) MOLT-4 cells, compound alone
experimental readout: viability at 24 h, 100 µM (%)
Write the value in % as a bare number.

**Query** Answer with the recorded viability at 24 h, 100 µM for the molecule listed here: NCCCNCCSP(=O)(O)O [WR2721, amifostine, reference compound]
**Result** 83

* * *

Recorded viability at 48 h, 100 µM, one value per entry.
- assay summary: WST-1 proliferation assay, MCF-7
- Format: cell-based
- condition info: human, MCF-7 cells (breast adenocarcinoma), vs 0.1% DMSO control = 100%, mean ± standard deviation
Could you give me the number in %? Just the number is fine.

COc1ccc(OCC(O)CN2CCN(CCO)CC2)c([N+](=O)[O-])c1 (stereo not shown) [Compound 2]	97
O=[N+]([O-])c1cc(OCC(O)CN2CCN(CCO)CC2)ccc1Cl (stereo not shown) [Compound 5]	104
O=[N+]([O-])c1ccc(OCC(O)CN2CCN(CCO)CC2)c(F)c1 (stereo not shown) [Compound 3]	91

**Query** Complete the entry with viability at 48 h, 100 µM for OCCN1CCN(CC(O)COc2ccc(F)cc2)CC1 (stereo not shown) [Compound 4]
**Result** 102

* * *

- assay summary: Ex vivo cytotoxicity on PBMCs, MTS colorimetric assay
- condition info: male, human, peripheral blood mononuclear cells (PBMCs)
experimental readout: viability at 48 h, 200 µM (%)
Numbers only here, please. The scale is %.

**Query** Please report the measured viability at 48 h, 200 µM for NCCCNCCSP(=O)(O)O [WR2721, amifostine, reference compound]
**Result** 35

* * *

- assay summary: Ex vivo cytotoxicity on PBMCs, MTS colorimetric assay
- condition info: male, human, peripheral blood mononuclear cells (PBMCs)
experimental readout: viability at 48 h, 500 µM
Show the value, then the unit it is measured in.

**Query** Determine its reported viability at 48 h, 500 µM: NCCCNCCSP(=O)(O)O [WR2721, amifostine, reference compound]
**Result** 37%

* * *

- assay summary: WST-1 proliferation assay, SAOS-2
- Format: cell-based
- condition info: human, SAOS-2 cells (osteosarcoma), vs 0.1% DMSO control = 100%, mean ± standard deviation
Parameter: viability at 48 h, 100 µM. Scope: all listed entries.
Your answer should be a plain number; it is taken to be in %.

Example compounds with recorded viability at 48 h, 100 µM:
O=[N+]([O-])c1ccc(OCC(O)CN2CCN(CCO)CC2)c(F)c1 (centres unmarked) [Compound 3]	92
NCCCNCCS [WR1065, reference compound]	7

**Query** Quick one: give measured viability at 48 h, 100 µM for OCCN1CCN(CC(O)COc2ccc(F)cc2)CC1 (centres unmarked) [Compound 4]
**Result** 102

**Query** Provide viability at 48 h, 100 µM value for the following compound: OCCN1CCN(CC(O)COc2cc(Cl)c(Cl)cc2Cl)CC1 (centres unmarked) [Compound 8]
**Result** 42

**Query** Provide measured viability at 48 h, 100 µM value, entry: OCCN1CCN(CC(O)COc2ccc(Oc3ccc(F)cc3)cc2)CC1 (centres unmarked) [Compound 7]
**Result** 15
